- Test system: biotinyl-Val-oxazolone
- Assay info: self-aminoacylation, catalytic enhancement (BVO) (fold over background); higher = more active; k-Seq, kA / k0A0; sequences stand for … in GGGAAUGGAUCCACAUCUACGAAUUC…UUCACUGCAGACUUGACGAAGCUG
Variants at the floor of the assay were thinned out.
Threshold rule: self-aminoacylation greater than or equal to 1 is fulfilled; below that, not fulfilled.

AUACUUCAAACAAUCGUUCUG [Fam1A.1 aminoacylation ribozyme variant]; not fulfilled
AAGUUCGCUAAUUGUCGCAAG [Fam3.1 aminoacylation ribozyme variant]; fulfilled
AUACACCUAGGUCAUGGGGUG [Fam2.2 aminoacylation ribozyme variant]; fulfilled
CUACAACAAACAAUCGGUCUG [Fam1A.1 aminoacylation ribozyme variant]; not fulfilled
AAGGUUGCUAAUAGUGGCAAG [Fam3.1 aminoacylation ribozyme variant]; not fulfilled
ACACACUUCAAGCAUUCGGUC [Fam1B.1 aminoacylation ribozyme variant]; fulfilled
AAUCACCUAGGUCAUUGGGUG [Fam2.2 aminoacylation ribozyme variant]; fulfilled
AUUCACCUAGGUAAUCGGGUA [Fam2.2 aminoacylation ribozyme variant]; fulfilled
